The following compounds are shown together with reported TGase activity remaining (% of DMSO control = 100) values.
# Test system: transglutaminase (TGase)
# METHOD_SUMMARY: Measurement of TG (TGase inhibitory activity, monodansyl cadaverine / N,N-dimethylcasein fluorescence, FDSS 3000)
# Format: biochemical
# ASSAY_CONDITIONS: TGase activity with compound (10 mM, 1 μL in 0.1 ml enzyme reaction solution); DMSO control taken as 100
// keep it numeric: no unit symbol after the value

Q: Using the record for NC(=O)CC(N)C(=O)OB(c1ccccc1)c1ccccc1 (centres unmarked) [Example 136, diphenyl(asparaginate-O,N)borane] , report its TGase activity remaining (% of DMSO control = 100).
A: 96

====

The following molecules are shown together with reported TGase activity remaining (% of DMSO control = 100) values.
# Tested on: transglutaminase (TGase)
# METHOD_SUMMARY: Measurement of TG (TGase inhibitory activity, monodansyl cadaverine / N,N-dimethylcasein fluorescence, FDSS 3000)
# Type: biochemical
# ASSAY_CONDITIONS: TGase inhibitory activity measurement; unit not given
// keep it numeric: no unit symbol after the value

Consider the following illustrative entries.
Cc1ccc(B(OCC2CCCCN2)c2ccc(COCc3ccc(B(OCC4CCCCN4)c4ccc(C)c(Cl)c4)cc3)cc2)cc1Cl (stereo not shown); 27
NCCNCCOB(c1ccc(COCc2ccc(B(OCCNCCN)c3ccc(F)c(F)c3)cc2)cc1)c1ccc(F)c(F)c1; 140
NC(CS)C(=O)OB(c1ccccc1)c1ccc(Oc2ccc(B(OC(=O)C(N)CS)c3ccc(CO)cc3)cc2)cc1 (stereo not shown); 70
Cc1ccc2cccc(OB(c3ccccc3)c3ccc(Oc4ccc(B(Oc5cccc6ccc(C)nc56)c5ccccc5)cc4)cc3)c2n1; 97
NCCOB(c1ccccc1)c1ccc2sc3ccc(B(OCCN)c4ccccc4)cc3c2c1; 108

Q: Using the record for NC(COB(c1ccccc1)c1ccc(COCc2ccc(B(OCC(N)Cc3ccccc3)c3ccccc3)cc2)cc1)Cc1ccccc1 (stereo not shown) , report its TGase activity remaining (% of DMSO control = 100).
A: 54

Q: Using the record for COc1ccc(B(OCCN)c2ccc(COCc3ccc(B(OCCN)c4ccc(OC)cc4)cc3)cc2)cc1 , report its TGase activity remaining (% of DMSO control = 100).
A: 65

====

The following compounds are shown together with reported TGase activity remaining (% of DMSO control = 100) values.
# System: transglutaminase (TGase)
# METHOD_SUMMARY: Measurement of TG (TGase inhibitory activity, monodansyl cadaverine / N,N-dimethylcasein fluorescence, FDSS 3000)
# Assay type: biochemical
# ASSAY_CONDITIONS: TGase activity with compound (10 mM, 1 μL in 0.1 ml enzyme reaction solution); DMSO control taken as 100
// keep it numeric: no unit symbol after the value

Consider the following illustrative entries.
c1ccc(B(OCCN2CCCCC2)c2cccc(COCc3cccc(B(OCCN4CCCCC4)c4ccccc4)c3)c2)cc1; 71
CCCCB(OCCN)c1ccccc1 [Example 112, aminoethyl normal-butyl phenylborinate]; 123
CNCCOB(c1ccc(COCc2ccc(B(OCCNC)c3ccc(OC)cc3)cc2)cc1)c1ccc(OC)cc1; 28
NCCNCCOB(c1ccccc1)c1ccc(COCc2ccc(B(OCCNCCN)c3ccccc3)cc2)cc1; 53
CN(C)CCOB(c1ccc(Oc2ccc(B(OCCN(C)C)c3cccc4ccccc34)cc2)cc1)c1cccc2ccccc12; 102

Q: Using the record for CC(O)C(N)C(=O)OB(c1ccccc1)c1ccccc1 (stereo not shown) [Example 265, diphenyl(threoninate-O,N)borane] , report its TGase activity remaining (% of DMSO control = 100).
A: 112

====

# System: transglutaminase (TGase)
# METHOD_SUMMARY: Measurement of TG (TGase inhibitory activity, monodansyl cadaverine / N,N-dimethylcasein fluorescence, FDSS 3000)
# Type: biochemical
# ASSAY_CONDITIONS: TGase inhibitory activity value, Table 1
ASSAY_READOUT: TGase activity remaining (% of DMSO control = 100)
// keep it numeric: no unit symbol after the value

Consider the following illustrative entries.
OB(c1ccccc1)c1ccc(COCc2ccccc2B(O)c2ccccc2)cc1 [Example 331]; 101
NCCOB(c1ccccc1)c1cccc(B(OCCN)c2ccccc2)c1 [Example 120]; 88
COc1ccc(C(OB(c2ccc(C)c(Cl)c2)c2ccc(C)c(Cl)c2)c2ccccn2)cc1 (centres unmarked) [Example 127]; 109
O=C1O[B-](c2ccccc2)(c2ccccc2)[NH2+]C1Cc1ccccc1 (centres unmarked) [Example 259, diphenyl(phenylalaninate-O,N)borane]; 67

Q: Using the record for CC(O)C(N)COB(c1ccc(Cl)c(F)c1)c1ccc(Cl)c(F)c1 (centres unmarked) [Example 238] , report its TGase activity remaining (% of DMSO control = 100).
A: 87

Q: Using the record for OB(c1ccc(COCc2ccc(B(O)c3cccc4ccccc34)cc2)cc1)c1cccc2ccccc12 [Example 141] , report its TGase activity remaining (% of DMSO control = 100).
A: 97

Q: Using the record for CN(C)CCSB(c1ccccc1)c1ccccc1 [Example 294, diphenyl dimethylaminoethylthioborane] , report its TGase activity remaining (% of DMSO control = 100).
A: 114

Q: Using the record for CN(C)CCOB(c1ccc(F)c(Cl)c1)c1ccc(F)c(Cl)c1 [Example 78] , report its TGase activity remaining (% of DMSO control = 100).
A: 104

Q: Using the record for Cc1cc(B(OCCN)c2ccccc2)ccc1B(OCCN)c1ccccc1 [Example 146] , report its TGase activity remaining (% of DMSO control = 100).
A: 91

Q: Using the record for N#Cc1cccc(B(O)c2cccc(C#N)c2)c1 [Example 306, 3,3′-di(cyano-phenyl)borinic acid] , report its TGase activity remaining (% of DMSO control = 100).
A: 90

Q: Using the record for CCCCNCCOB(c1ccc(C)c(Cl)c1)c1ccc(C)c(Cl)c1 [Example 210] , report its TGase activity remaining (% of DMSO control = 100).
A: 27

Q: Using the record for CC(C)(C)B(OCCN)c1ccccc1 [Example 111, aminoethyl tertiary-butyl phenylborinate] , report its TGase activity remaining (% of DMSO control = 100).
A: 121

Q: Using the record for Cc1ccc(B(OC(=O)c2ccccc2N)c2ccc(C)c(Cl)c2)cc1Cl [Example 180] , report its TGase activity remaining (% of DMSO control = 100).
A: 35

Q: Using the record for NCCOB(c1ccccc1)c1ccc(COCc2ccc(B(OCCN)c3ccc(COCc4ccc(B(OCCN)c5ccccc5)cc4)cc3)cc2)cc1 [Example 189] , report its TGase activity remaining (% of DMSO control = 100).
A: 119

Q: Using the record for NCCOB(c1cccc(COCc2cccc(B(OCCN)c3cccc4ccccc34)c2)c1)c1cccc2ccccc12 [Example 376] , report its TGase activity remaining (% of DMSO control = 100).
A: 75

Q: Using the record for CSCCC(N)C(=O)OB(c1ccccc1)c1ccccc1 (centres unmarked) [Example 194, diphenyl(methionate-O,N)borane] , report its TGase activity remaining (% of DMSO control = 100).
A: 106

Q: Using the record for N#Cc1ccc(B(OCc2ccccn2)c2ccc(C#N)cc2)cc1 [Example 104] , report its TGase activity remaining (% of DMSO control = 100).
A: 94

Q: Using the record for NCCOB(c1ccccc1)c1ccc(COCc2ccccc2B(OCCN)c2ccccc2)cc1 [Example 335] , report its TGase activity remaining (% of DMSO control = 100).
A: 91

Q: Using the record for NCC(OB(c1ccc(F)c(F)c1)c1ccc(F)c(F)c1)c1ccccc1 (centres unmarked) [Example 88] , report its TGase activity remaining (% of DMSO control = 100).
A: 82

Q: Using the record for NC(=O)NCCCC(N)C(=O)OB(c1ccccc1)c1ccccc1 (centres unmarked) [Example 307, diphenyl(citrullinate-O,N)borane] , report its TGase activity remaining (% of DMSO control = 100).
A: 54

Q: Using the record for NCCOB(c1ccc(Cl)cc1F)c1ccc(Cl)cc1F [Example 84] , report its TGase activity remaining (% of DMSO control = 100).
A: 91

Q: Using the record for c1ccc(B(OCc2ccccn2)c2ccc(COCc3ccc(B(OCc4ccccn4)c4ccccc4)cc3)cc2)cc1 [Example 184] , report its TGase activity remaining (% of DMSO control = 100).
A: 94

Q: Using the record for NCCOB(c1ccccc1)c1cccc(COCc2cccc(Oc3ccccc3)c2)c1 [Example 278] , report its TGase activity remaining (% of DMSO control = 100).
A: 2

Q: Using the record for c1ccc(B(OCc2ccccn2)c2cccc3ccccc23)cc1 [Example 202, phenyl naphthyl 2-pyridylmethylborinate] , report its TGase activity remaining (% of DMSO control = 100).
A: 91

Q: Using the record for OB(c1ccc(F)c(Cl)c1)c1ccc(F)c(Cl)c1 [Example 76, bis(3-chloro-4-fluorophenyl)borinic acid] , report its TGase activity remaining (% of DMSO control = 100).
A: 117

Q: Using the record for NC(CS)C(=O)OB(c1ccccc1)c1ccccc1 (centres unmarked) [Example 266, diphenyl(cysteinate-O,N)borane] , report its TGase activity remaining (% of DMSO control = 100).
A: 84
